Tested on: HL-60(TB) leukemia
Experiment: NCI tumour cell line growth inhibition, 48 h
*1 amine or outer side, *2 acyl side, *3 side chain or, on linkers, in order; H or OH if unused. Where a SMILES comes first, the peptide text is derived from it. [ ]: non-standard residue; d: D form. The star is where a group is joined. X31 = CC(=O)N(C)SCC(N[*:1])C(=O)[*:2]; X47 = CC(=O)N(C)SCC(N*)/C(O)=N\O; Cbz = O=C(OCc1ccccc1)*; Bn = c1ccc(C*)cc1; For = O=C*
Would you kindly list TGI for each of these molecules?

Known TGI results, listed for orientation:
Molecule: CC(=O)NCCc1c2c(c3nccc4c3c1Nc1ccccc1-4)OCS2
Target system: HL-60(TB) leukemia
TGI: 14.3 µM
--
Molecule: Cc1ccc(NC(=O)c2cc3cc(N=Nc4ccc(Br)cc4)ccc3oc2=O)cc1
Target system: HL-60(TB) leukemia
TGI: > 100 µM
--
Molecule: CCOC(=O)Nc1cc2nnc(-c3ccccc3)nc2c(N)n1
Target system: HL-60(TB) leukemia
TGI: 37.5 µM
--
Molecule: CN(C)c1ccc2c(=O)c3ccccc3oc2n1
Target system: HL-60(TB) leukemia
TGI: > 100 µM
--
Molecule: CC(=O)N(C)SCC(NC(=O)C(Cc1ccccc1)NC(=O)OCc1ccccc1)C(=O)NC(Cc1ccccc1)C(=O)NC(Cc1cn(C=O)c2ccccc12)C(=O)NC(CCCCNC(=O)OCc1ccccc1)C(=O)NC(C(=O)NC(CSN(C)C(C)=O)/C(O)=N\O)C(C)OCc1ccccc1 (stereo not drawn) (Cbz-F[X31]FW(For)K(Cbz)T(Bn)-X47; configuration not given here)
Target system: HL-60(TB) leukemia
TGI: > 100 µM

Okay, here is my list. What is TGI for each of these?
1. COC(=O)CCc1cc(OC)c(O)c(C(Cc2ccc(OC)c(OC)c2)C(=O)OC)c1 (stereo not drawn)
2. Nc1ncnc2c1ncn2C1OC(COP(=O)(O)O)C(O)C1O (stereo not drawn)
3. CCOC(=O)c1c2c3c(cccc3[nH]c1=O)Sc1ncccc1-2

**A:**
1: > 100 µM; 2: > 50 µM; 3: 86.4 µM
